Value source: ChEMBL document CHEMBL1201862

- System: A549
- experiment: NCI tumour cell line growth inhibition, 48 h
Active and inactive are the calls of the source. Rule as the data show it: active = GI50 up to about 1.1 µM and inactive = higher.
Outcomes: Y (active), N (inactive)

molecule	class.name
CC(NC(=O)c1ccc(OP(=O)(OCC2=CC(=O)c3ccccc3C2=O)N(C)CCCCCl)cc1)c1ccc(OCC2CCCCC2)c(C(N)=O)c1 (stereo unspecified)	N
CCOC(=O)C1=C(c2ccccc2)N(C)c2ccccc2S1	N
COC(=O)[C@@H]1c2cc3c(c(O)c2[C@@H](OC2OC(C)C(OC)C(C)(OC)C2OC)C[C@]1(C)O)C(=O)c1c(O)cc2c(c1C3=O)O[C@H]1O[C@]2(C)[C@H](O)[C@@H](N(C)C)[C@@H]1O (stereo partly specified)	Y
CCOC(=O)CCC(NC(=O)c1ccc(/N=C/c2nc3ccccc3nc2-c2ccccc2)cc1)C(=O)OCC (stereo unspecified)	N
CN(CCCNC(=O)c1n[nH]c2c1ccc1ccccc12)CCCNC(=O)c1n[nH]c2c1ccc1ccccc12	N
CC(=O)Oc1c2c(c(OC(C)=O)c3c1n(C(C)=O)c1ccccc1n3C(C)=O)n(C(C)=O)c1ccccc1n2C(C)=O	N
CCOC(=O)/C(C(N)=O)=C(O)/C(O)=C/C(=O)c1ccc(Cl)cc1	N
CC(C)CC(NC(=O)C(CCI)Cc1ccccc1)C(=O)Nc1ccccc1 (stereo unspecified)	N
O=C(O)c1ccccc1C1c2ccc(Cl)cc2Oc2cc(Cl)ccc21	N
Cn1c(=O)c2c(nc(C(=N)SCC(=O)O)n2C)n(C)c1=O	N
COc1ccc(NC(=O)C(=O)NO)c(OC)c1	N
CO[C@H](C(=O)O[C@H]1C(=O)N2CCC3CCC1C32C)c1ccccc1 (stereo partly specified)	N
CCCCCCCCCCCCCCCC(=O)N(CCCCCCCCCCC(=O)O)CC(O)C(O)C(OC1OC(CO)C(O)C(O)C1O)C(O)CO (stereo unspecified)	N
CN(C)c1ccc2c3c(c(=O)oc2c1)CCC3	N
Cc1n[nH]c(C(F)(F)F)c1/N=N/N(C)C	N
N#Cc1ccc(-c2nc3c(N)nc(-c4ccccc4)nc3o2)cc1	N
O=c1cc(NNc2ccccc2)[nH]c(=O)[nH]1	N
O=C1/C(=C/c2cccs2)N=C(c2ccccc2)N1C1Nc2cc3c(cc2S1)NC(N1C(=O)/C(=C/c2cccs2)N=C1c1ccccc1)S3 (stereo unspecified)	N
Nc1ccc(C(=O)Nn2c(-c3ccccc3)nc3ccccc3c2=O)cc1	N
CC1(C)CC(=O)C2(CC(CSc3ccccc3)C(CS(=O)(=O)c3ccccc3)C2)C(=O)C1 (stereo unspecified)	N
C=C1CC(C#N)(C#N)[C@@H]2CC3CCCC3[C@H]12.C=C1CC(C#N)(C#N)[C@H]2C3CCCC3C[C@@H]12 (stereo partly specified)	N
c1cc2n(n1)CCN2	N
C=CC(=O)N1C/C(=C\c2ccc([N+](=O)[O-])cc2)C(=O)/C(=C/c2ccc([N+](=O)[O-])cc2)C1	Y
Cc1ccc(C(=O)Cn2c(C(=O)/C=C/c3cccs3)nc3ccccc32)cc1	N
Cc1cccc(N/C(Sc2ccccc2)=C(/C(Cl)=C(Cl)Cl)[N+](=O)[O-])c1	N
O=S(=O)(F)Cc1ccccc1 [PHENYLMETHYLSULFONYLFLUORIDE]	N
O=C1OC[C@@H]2Cc3c([nH]c4ccccc34)[C@@H](c3ccc(O)cc3)N12	N
CC(C)N1CCN(c2ccncc2S(=O)(=O)N2CCCCC2)CC1	N
CCn1c(-c2ccc(C)cc2)cs/c1=N\C(P(=O)(O)O)P(=O)(O)O	N
Cc1ccc(-c2nnc3s/c(=C\c4ccc(N(C)C)cc4)c(=O)n23)cc1	N
CC(=O)OCCCCn1cnc2c(Cl)nc(Nc3ccccc3)nc21	N
